- subject_of_test: Electric eel acetylcholinesterase (Electrophorus electricus)
- Construct: purchased Sigma Co. (St. Louis, MO, USA)
- assay_remarks: In vitro AChE inhibition assay (Ellman spectrophotometric method)
- Type: biochemical
- test_parameters: mean ± S.E.M of triplicate experiments; log dose inhibition curve; read-out: AChE IC50
IC50 by entry:

compound	subject_of_test	readout_units	IC50
COc1cc(O[C@@H]2O[C@H](CO[C@@H]3O[C@H](CO)[C@@H](O)[C@H](O)[C@H]3O)[C@@H](O)[C@H](O)[C@H]2O)c2c(O)c3c(=O)cc(C)oc3cc2c1 [Compound 3, rubrofusarin 6-O-β-D-gentiobioside]	Electric eel acetylcholinesterase (Electrophorus electricus)	µM	15.9
COc1cc(O[C@@H]2O[C@H](CO[C@@H]3O[C@H](CO)[C@@H](O)[C@H](O)[C@H]3O)[C@@H](O)[C@H](O)[C@H]2O)c2c(c1)cc(O)c1c(=O)cc(C)oc12 [Compound 5, isorubrofusarin 10-O-β-D-gentiobioside]	Electric eel acetylcholinesterase (Electrophorus electricus)	µM	83.5
Cc1cc(=O)c2c(O)c3c(OC4OC(CO)C(O)C(O)C4O)cc(O)cc3cc2o1 [Compound 4, nor-rubrofusarin 6-O-β-D-glucoside]	Electric eel acetylcholinesterase (Electrophorus electricus)	µM	86

###

- subject_of_test: human recombinant BACE1 (Homo sapiens, UniProt P56817)
- Sequence (P56817 46-501): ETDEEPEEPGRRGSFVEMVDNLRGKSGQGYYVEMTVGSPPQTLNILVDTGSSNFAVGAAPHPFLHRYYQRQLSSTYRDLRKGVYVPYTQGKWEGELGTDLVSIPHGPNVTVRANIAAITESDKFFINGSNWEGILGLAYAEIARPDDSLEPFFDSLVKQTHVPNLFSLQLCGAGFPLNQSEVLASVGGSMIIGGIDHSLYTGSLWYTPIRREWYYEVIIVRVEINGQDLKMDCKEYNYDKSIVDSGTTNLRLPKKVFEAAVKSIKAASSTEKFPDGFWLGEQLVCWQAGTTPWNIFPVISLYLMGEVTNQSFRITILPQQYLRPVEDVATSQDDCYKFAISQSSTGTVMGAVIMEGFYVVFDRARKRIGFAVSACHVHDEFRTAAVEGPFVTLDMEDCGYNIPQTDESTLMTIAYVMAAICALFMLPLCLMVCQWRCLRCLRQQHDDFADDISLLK
- assay_remarks: Enzyme kinetic analysis with BACE1 (Dixon and Lineweaver-Burk plots)
- test_parameters: Dixon plot; read-out: Ki Value (BACE1 inhibition constant)
- Description: Assays were performed according to the supplied manual (Pan Vera Co.) with selected modifications, as described previously. […] The proteolysis of two fluorophores (Rh-[…]-Quencher) by BACE1 was monitored by the formation of fluorescent donor Rh-EVNL (530–545 nm, excitation; 570–590 nm, emission), the abundance of which was determined by measuring increase in fluorescence excited at 545 nm and recorded at 585 nm. Fluorescence was measured with a microplate spectrophotometer (Molecular Devices). […]
readout_type: Ki (µM)

                                   compound  readout_units  assay_value
0  Cc1cc(=O)c2c(O)c3c(OC4OC(CO)C(O)C(O)C4O)cc(O)cc3cc2o1 [Compound 4, nor-rubrofusarin 6-O-β-D-glucoside]             µM           10

###

- subject_of_test: Electric eel acetylcholinesterase (Electrophorus electricus, UniProt O42275)
- Construct: purchased Sigma Co. (St. Louis, MO, USA)
- Sequence (O42275 24-633): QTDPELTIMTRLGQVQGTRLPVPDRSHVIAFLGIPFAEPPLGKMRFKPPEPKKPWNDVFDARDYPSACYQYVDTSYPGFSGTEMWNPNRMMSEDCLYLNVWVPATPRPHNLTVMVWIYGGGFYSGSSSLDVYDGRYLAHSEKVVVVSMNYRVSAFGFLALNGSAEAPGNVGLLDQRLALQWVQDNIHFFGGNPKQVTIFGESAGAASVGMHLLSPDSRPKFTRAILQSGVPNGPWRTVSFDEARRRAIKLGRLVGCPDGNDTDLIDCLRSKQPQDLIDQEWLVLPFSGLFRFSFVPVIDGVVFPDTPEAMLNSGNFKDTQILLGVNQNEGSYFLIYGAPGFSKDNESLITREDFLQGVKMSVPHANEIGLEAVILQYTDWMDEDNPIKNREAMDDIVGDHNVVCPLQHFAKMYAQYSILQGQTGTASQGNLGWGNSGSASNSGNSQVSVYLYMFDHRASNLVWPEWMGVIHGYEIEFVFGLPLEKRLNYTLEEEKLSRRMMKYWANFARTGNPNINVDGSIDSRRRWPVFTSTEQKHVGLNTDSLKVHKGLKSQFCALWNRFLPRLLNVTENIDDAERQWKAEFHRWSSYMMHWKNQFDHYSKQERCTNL
- assay_remarks: In vitro AChE inhibition assay (Ellman spectrophotometric method)
- Type: biochemical
- test_parameters: mean ± S.E.M of triplicate experiments; log dose inhibition curve; read-out: AChE IC50

compound	IC50
COc1cc(OC2OC(CO)C(O)C(O)C2O)c2c(O)c3c(=O)cc(C)oc3cc2c1 [Compound 2, rubrofusarin 6-O-β-D-glucopyranoside]	148 µM
COc1cc(O[C@@H]2O[C@H](CO[C@@H]3O[C@H](CO)[C@@H](O)[C@H](O[C@@H]4O[C@H](CO)[C@@H](O)[C@H](O)[C@H]4O)[C@H]3O)[C@@H](O)[C@H](O)[C@H]2O)c2c(O)c3c(=O)cc(C)oc3cc2c1 [Compound 6, rubrofusarin 6-O-β-D-triglucoside]	82.3 µM

###

- subject_of_test: horse serum butyrylcholinesterase (Equus caballus)
- Construct: horse-serum BChE (EC 3.1.1.8); purchased Sigma Co. (St. Louis, MO, USA); host or cells: horse serum
- Sequence (P81908 whole entry): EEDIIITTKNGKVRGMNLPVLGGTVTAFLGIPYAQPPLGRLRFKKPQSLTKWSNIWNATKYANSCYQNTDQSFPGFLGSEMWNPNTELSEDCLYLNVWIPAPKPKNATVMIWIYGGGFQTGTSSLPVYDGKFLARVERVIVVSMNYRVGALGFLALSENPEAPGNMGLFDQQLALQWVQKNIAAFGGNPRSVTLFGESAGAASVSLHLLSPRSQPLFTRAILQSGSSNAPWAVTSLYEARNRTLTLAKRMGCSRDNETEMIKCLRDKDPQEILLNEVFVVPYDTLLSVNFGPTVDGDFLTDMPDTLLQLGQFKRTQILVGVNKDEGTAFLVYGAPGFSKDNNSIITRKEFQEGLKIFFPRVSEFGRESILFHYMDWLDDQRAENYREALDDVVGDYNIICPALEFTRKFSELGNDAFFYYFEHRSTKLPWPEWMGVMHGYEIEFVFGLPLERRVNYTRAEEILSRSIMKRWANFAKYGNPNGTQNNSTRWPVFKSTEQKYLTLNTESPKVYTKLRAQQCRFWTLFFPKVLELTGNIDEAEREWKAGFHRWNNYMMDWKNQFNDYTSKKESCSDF
- assay_remarks: In vitro BChE inhibition assay (Ellman spectrophotometric method)
- Type: biochemical
- test_parameters: mean ± S.E.M of triplicate experiments; log dose inhibition curve; read-out: BChE IC50
IC50 by entry:
readout_type: IC50

compound	readout_type	assay_value
COc1cc(O[C@@H]2O[C@H](CO[C@@H]3O[C@H](CO)[C@@H](O)[C@H](O)[C@H]3O)[C@@H](O)[C@H](O)[C@H]2O)c2c(O)c3c(=O)cc(C)oc3cc2c1 [Compound 3, rubrofusarin 6-O-β-D-gentiobioside]	IC50	141 µM
COc1cc(O[C@@H]2O[C@H](CO[C@@H]3O[C@H](CO)[C@@H](O)[C@H](O)[C@H]3O)[C@@H](O)[C@H](O)[C@H]2O)c2c(c1)cc(O)c1c(=O)cc(C)oc12 [Compound 5, isorubrofusarin 10-O-β-D-gentiobioside]	IC50	> 200 µM
COc1cc(OC2OC(CO)C(O)C(O)C2O)c2c(O)c3c(=O)cc(C)oc3cc2c1 [Compound 2, rubrofusarin 6-O-β-D-glucopyranoside]	IC50	> 200 µM
COc1cc(O[C@@H]2O[C@H](CO[C@@H]3O[C@H](CO)[C@@H](O)[C@H](O[C@@H]4O[C@H](CO)[C@@H](O)[C@H](O)[C@H]4O)[C@H]3O)[C@@H](O)[C@H](O)[C@H]2O)c2c(O)c3c(=O)cc(C)oc3cc2c1 [Compound 6, rubrofusarin 6-O-β-D-triglucoside]	IC50	> 200 µM
Cc1cc(=O)c2c(O)c3c(OC4OC(CO)C(O)C(O)C4O)cc(O)cc3cc2o1 [Compound 4, nor-rubrofusarin 6-O-β-D-glucoside]	IC50	> 200 µM

###

- subject_of_test: horse serum butyrylcholinesterase (Equus caballus)
- Construct: horse-serum BChE (EC 3.1.1.8); purchased Sigma Co. (St. Louis, MO, USA); host or cells: horse serum
- assay_remarks: In vitro BChE inhibition assay (Ellman spectrophotometric method)
- Format: biochemical
readout_type: IC50

>>> print(df.to_string())
                            smiles_str  readout_type  assay_value
0  COc1cc(O)c2c(O)c3c(=O)cc(C)oc3cc2c1          IC50     > 200 µM
